Procedure details: inhibitors of TNFa-induced NFkB p65 translocation, primary screen, imaging, HUVEC, MLSMR starter and 10KST1 sets (AID 438);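 further: compound added about 3h40 before a 20 min TNFalpha stimulation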
Settings: HUVEC TNFa-induced p65 nuclear translocation; measured here: nuclei count (cytotoxicity indicator), at 2.08 µM

{"columns": ["Molecule", "cell count"],
 "data": [
  ["Cc1cc(=O)oc(C)c1C(=O)NC1CC(C)(C)NC(C)(C)C1", 688],
  ["CCn1c(CSc2nc(C)cc(C)n2)nnc1SCC(=O)Nc1ccccc1", 579],
  ["CCOC(=O)c1cnn2c1[nH]c(=O)c1ccccc12", 560],
  ["O=P(O)(CN1CCCCCC1)CN1CCCCCC1", 575],
  ["O=C(CC(c1ccco1)S(=O)(=O)c1ccccc1)c1ccc(F)cc1 (stereo unspecified)", 585],
  ["CCN(CC)C(=O)COn1c(SCC(=O)N(CC)CC)nc2ccccc2c1=O", 714],
  ["O=C1c2ccccc2C(=O)N1c1ncccn1", 500],
  ["O=C1N=C(N2CCOCC2)CS1", 309],
  ["Cc1nnc(N2C(=O)c3oc4ccccc4c(=O)c3C2c2ccco2)s1 (stereo unspecified)", 804],
  ["CC(C)c1nnc(SCC(=O)NCc2ccco2)n1C", 248],
  ["N#Cc1c2c(c(-c3ccco3)[nH]c1=O)CCCC2", 576],
  ["CCOC(=O)c1c(C)[nH]c(C(=O)Cn2c(=O)c3c(ncn3CC)n(Cc3ccccc3)c2=O)c1C", 752],
  ["Cc1cccc2c(=O)oc(-c3ccc4c(c3)C(=O)N(CC3CCCO3)C4=O)nc12 (stereo unspecified)", 349],
  ["CCN(CC)CCN1C(=O)C(O)=C(C(=O)c2cccs2)C1c1ccc(C)o1 (stereo unspecified)", 343],
  ["Cc1c(C(=O)OCc2ccccc2)[nH]c2c1C(=O)CC(c1ccco1)C2 (stereo unspecified)", 721],
  ["O=C(c1cccs1)N1CCN=C1SCc1ccccc1", 435]
]}

====

Measured target: Alpha-2C adrenergic receptor (Homo sapiens)
Procedure details: modulators of alpha2C/GIRK thallium flux, primary screen, cell-based, HEK293 alpha2C/GIRK1/2 (AID 624);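 further: slope of fluorescence ratio to pre-addition baseline per second over 15 to 24 s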
Settings: thallium flux BTC fluorescence, at 10 µM, actives lie on both sides

{"columns": ["Molecule", "slope"],
 "data": [
  ["CCOC(=O)N1CCN(C(=O)COc2ccc(S(=O)(=O)NC(C)C)cc2)CC1", 0.00507],
  ["c1ccc(-c2noc(C3CCCCC3)n2)nc1", 0.00485],
  ["CCc1ccc(NC(=O)CS(=O)CC(=O)NCC2OCCc3ccccc32)cc1 (stereo not given)", 0.00515],
  ["O=C1c2cccnc2C(=O)N1c1cccc(-c2nc3ccccc3o2)c1", 0.00507],
  ["O=C1CC(c2ccccc2)Cc2nc(N3CCc4ccccc43)ncc21 (stereo not given)", 0.00498]
]}

====

Procedure details: inhibitors of TNFa-induced NFkB p65 translocation, primary screen, imaging, HUVEC, MLSMR starter and 10KST1 sets (AID 438);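 further: compound added about 3h40 before a 20 min TNFalpha stimulation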;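 on inhibition: signal is the nuclear over cytoplasmic p65 intensity ratio per well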
Settings: HUVEC TNFa-induced p65 nuclear translocation; at 2 µM, stronger effect = higher value, 0% TNFa-plus-vehicle, 100% no-TNFa wells
Active and inactive are the calls of the source.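 How the source made its calls: active means inhibition above 20% together with a positive visual image hit; inconclusive means visual image hit but inhibition not above 20%; inactive means no visual image hit.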
Measured parameter: inhibition

{"columns": ["Compound", "Observed measurement"],
 "data": [
  ["C=CCSc1nnc(NC(=O)c2ccc(S(=O)(=O)NCC3CCCO3)cc2)s1 (stereo not given)", "5.1% (inactive)"],
  ["COc1cccc(NC(=O)c2cc(C(=O)Nc3cccc(OC)c3)n(C)n2)c1", "5.1% (inactive)"],
  ["COC(=O)c1cc(Br)c(=O)n(-c2cc(C)on2)c1", "-3.9% (inactive)"],
  ["CCOCCCNC(=O)CC1Oc2ccc(C)cc2NC1=O (stereo not given)", "-6.2% (inactive)"],
  ["COc1ccc2cc(C(c3nnnn3C3CCCCC3)N3CCCCCC3)c3nnnn3c2c1 (stereo not given)", "-6.7% (inactive)"],
  ["CCOC(=O)N1CCN(c2ncnc3c2cnn3-c2ccc(OC)cc2)CC1", "-4.6% (inactive)"],
  ["CCc1cc(=O)oc2cc(C)c(CN3CCCCC3)c(O)c12", "-9.1% (inactive)"],
  ["COc1cccc(/C=N/n2c(C)nc3ccccc32)c1OC", "0.5% (inactive)"],
  ["CCOC(=O)CSc1nnc(C)c(=O)[nH]1", "-5.5% (inactive)"],
  ["CCCCc1nc(N2CCOCC2)c(C#N)c2c1COC(C)(C)C2", "-4.2% (inactive)"]
]}

====

Procedure details: DUSP6 inhibitors restoring Erk phosphorylation by chemical complementation, primary imaging in DUSP6-transfected HeLa (AID 609)
Settings: HeLa MKP-3 transfected, phospho-Erk imaging KS statistic; measured here: nuclear c-Myc green intensity z-score; at 10 µM; cells stimulated with TPA for 15 min
Decide by z-score: equal to or exceeding 0.9 means YES, less means NO.

{"columns": ["Sample smiles", "Class label"],
 "data": [
  ["CNC(=O)CCn1nc(-c2ccccc2)c2ccccc2c1=O", "NO"],
  ["O=C(NCCN1CCOCC1)c1ccc(=O)oc1", "YES"],
  ["CCCCc1nc(N2CCOCC2)c(C#N)c2c1COC(C)(C)C2", "NO"],
  ["O=C(Cc1ccccc1)Nc1cccc(-c2nnc(-c3ccco3)o2)c1", "YES"]
]}

====

Procedure details: inhibitors of TNFa-induced NFkB p65 translocation, primary screen, imaging, HUVEC, MLSMR starter and 10KST1 sets (AID 438);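 further: compound added about 3h40 before a 20 min TNFalpha stimulation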
Settings: HUVEC TNFa-induced p65 nuclear translocation; measured here: nuclei count (cytotoxicity indicator), at 2.08 µM
List of cell count values.
Measured parameter: cell count

{"columns": ["Molecule", "Observed measurement"],
 "data": [
  ["COc1ccc(CN(C)CCc2ccccn2)c(OC)c1OC", 494],
  ["CCCCOC(=O)CSC1=C(C#N)C(c2ccc3c(c2)OCO3)CC(=O)N1 (stereo not given)", 650],
  ["C=CCN=C(NC#N)SCCc1ccccc1", 587],
  ["CCOC(=O)N1CCN(C(=O)Cn2ncn3nc(-c4cccs4)cc3c2=O)CC1", 313],
  ["CCOC(=O)CSc1nnc(Cn2c(=O)sc3ccccc32)n1C", 475],
  ["C=CCOn1c(=O)c(-c2ccc(OC)cc2)[n+]([O-])c2ccccc21", 586],
  ["CCc1nc(N2CCN(C(=O)c3ccccc3)CC2)c(C#N)c2c1COC(C)(C)C2", 548],
  ["c1ccc2c(c1)CCOC2CNCCCN1CCCCC1 (stereo not given)", 701],
  ["O=C(Nc1ccccc1)C1=C(O)CC(c2ccoc2)CC1=Nc1ccccc1 (stereo not given)", 321],
  ["CCC(NC(=O)NC1=NCCS1)(C(F)(F)F)C(F)(F)F", 772],
  ["COc1cccc(C2C(C(=O)c3sc(C)nc3C)=C(O)C(=O)N2CCN2CCOCC2)c1OC (stereo not given)", 403],
  ["CC(=O)Nc1cc2c(nc1C)nc(C)n2Cc1ccc(Br)cc1", 419],
  ["O=C(Nc1ccc(N2C(=O)C3C4C=CC(C4)C3C2=O)cc1)Nc1nncs1 (stereo not given)", 668],
  ["CC1(C)Cc2c(c(-c3ccccc3Cl)[nH]c(=O)c2C#N)CO1", 591],
  ["CCOc1cc2[nH]c(=O)n(CCCCC(=O)NCc3ccco3)c(=O)c2cc1OCC", 394]
]}

====

List of inhibition values.
Procedure details: inhibitors of poly I:C-induced TLR3 signaling, primary screen, cell-based, poly I:C stimulus, luciferase, 10K MLSCN set (AID 602277)
Settings: HEK293-TLR3 RL24 IRF3 luciferase reporter, at 10 µM, stronger effect = higher value
Measured parameter: inhibition (%)

{"columns": ["Molecule", "Unit text", "Observed measurement"],
 "data": [
  ["CCc1nnc(NC(=O)C2Cc3ccccc3CN2S(=O)(=O)c2cccs2)s1 (stereo unspecified)", "%", -50.1],
  ["CCCCSCCCNC(=O)CS(=O)Cc1nc(-c2cccc(C)c2)oc1C (stereo unspecified)", "%", 10.7],
  ["COc1ccc(-c2nc(CSCC(=O)N3CCc4ccccc4C3)c(C)o2)cc1OC", "%", 12.7],
  ["COc1ccc(-c2nnc(SCC(=O)Nc3sc4c(c3C#N)CCC4)n2CC2CCCO2)cc1 (stereo unspecified)", "%", 15.5],
  ["Clc1cccc(-c2nnc(-c3ccccc3)o2)c1", "%", -47],
  ["O=C(CSCc1ccc(F)cc1)NC1CCCC1", "%", -75.4],
  ["COC(=O)C1=C(C)OC(N)=C(C#N)C1c1c(C)nn(-c2ccccc2)c1Cl (stereo unspecified)", "%", -11.8],
  ["COc1cc2c(cc1OC)CN(CC(=O)Nc1cccc(C)c1)CC2", "%", 9.94],
  ["Cc1cc(NS(=O)(=O)c2ccc(NC(=O)COc3ccccc3C(C)C)cc2)no1", "%", 39.1],
  ["COC(=O)C1(C)NC(c2cccs2)C2C(=O)N(c3ccccc3F)C(=O)C21 (stereo unspecified)", "%", -0.188],
  ["O=C(CCS(=O)(=O)c1cccc2nonc12)Nc1cccc2c1CCCC2", "%", 5.02],
  ["C=CCOc1ccccc1/C=c1\\sc2nc(=O)c(C)nn2c1=O", "%", 26.5],
  ["CC1CCCC(C)N1C(=O)COC(=O)c1ccc[nH]c1=O (stereo unspecified)", "%", 31.4],
  ["O=C(NCc1ccco1)C(c1ccco1)N(C(=O)Cn1nnc2ccccc21)c1ccc2c(c1)CCC2 (stereo unspecified)", "%", 21.8],
  ["O=c1c2ccccc2c(/C=N/n2cnnc2)c(O)n1-c1ccccc1", "%", 6.58],
  ["O=C1CCCc2nc(N3CCCCC3)sc21", "%", -85.2],
  ["CN(C)S(=O)(=O)c1ccc(Oc2ccc(S(=O)(=O)N(C)C)cc2)cc1", "%", -20.3],
  ["COc1ccc(Oc2nc(Oc3ccc(OC)cc3)nc(Oc3ccc(OC)cc3)n2)cc1", "%", 11.5],
  ["N#CC1=C(SCC(=O)c2cc3ccccc3oc2=O)NC(=O)C(C#N)C12CCCC2 (stereo unspecified)", "%", 31.4],
  ["CCOC(=O)c1cc2n(n1)C(C(F)(F)C(F)(F)F)CC(C)N2 (stereo unspecified)", "%", 14.9],
  ["c1ccc2c(c1)c1c3n2CCNC3CCC1 (stereo unspecified)", "%", 14],
  ["CC1(C)Oc2ccc3ccc(=O)oc3c2C(N2CCCCC2)C1O (stereo unspecified)", "%", 33.6],
  ["CCOC(=O)N1CCN(C(=O)CSc2ncnc3ccccc23)CC1", "%", -8.53],
  ["CN1CCN(Cc2nc3c(c(=O)n(C)c(=O)n3C)n2Cc2ccccc2Cl)CC1", "%", 45.1],
  ["c1ccc2c(c1)CNC1(CCCCC1)C2", "%", 14.2],
  ["COc1ccc(OC)c2[nH]c(=O)c(CCNC(=O)C(C)C)cc12", "%", 9.79],
  ["COC(=O)c1cn(C(=O)c2ccc(Br)o2)c2ccccc12", "%", 18],
  ["CCCc1cc(=O)oc2c(C)c3occ(C)c3cc12", "%", 6.19],
  ["CCOC(=O)NC1(NCc2ccccc2)Oc2ccccc2O1", "%", -21.2],
  ["Cc1nnc(SCC(=O)NCc2ccccc2)s1", "%", 30.9],
  ["O=C(NCc1ccccn1)c1cccs1", "%", 5.52],
  ["CCn1c(C)cc(=S)c2ccccc21", "%", 12.6],
  ["CCOC(=O)N1CCN(C(=O)Cn2ncn3nc(-c4cccs4)cc3c2=O)CC1", "%", -47.5],
  ["COCCn1nnnc1C(c1cccs1)N1CCN(c2cc(C)ccc2C)CC1 (stereo unspecified)", "%", 16.2],
  ["COc1cccc(NC(=O)N2CCCC2C(=O)NC(C)C)c1 (stereo unspecified)", "%", 13.7],
  ["CCSc1nncn1/N=C/c1ccc(OC)c(OC)c1", "%", -5.17]
]}
